Measured on: Sodium- and chloride-dependent neutral and basic amino acid transporter B(0+) (Homo sapiens)
Sequence (Q9UN76 whole entry): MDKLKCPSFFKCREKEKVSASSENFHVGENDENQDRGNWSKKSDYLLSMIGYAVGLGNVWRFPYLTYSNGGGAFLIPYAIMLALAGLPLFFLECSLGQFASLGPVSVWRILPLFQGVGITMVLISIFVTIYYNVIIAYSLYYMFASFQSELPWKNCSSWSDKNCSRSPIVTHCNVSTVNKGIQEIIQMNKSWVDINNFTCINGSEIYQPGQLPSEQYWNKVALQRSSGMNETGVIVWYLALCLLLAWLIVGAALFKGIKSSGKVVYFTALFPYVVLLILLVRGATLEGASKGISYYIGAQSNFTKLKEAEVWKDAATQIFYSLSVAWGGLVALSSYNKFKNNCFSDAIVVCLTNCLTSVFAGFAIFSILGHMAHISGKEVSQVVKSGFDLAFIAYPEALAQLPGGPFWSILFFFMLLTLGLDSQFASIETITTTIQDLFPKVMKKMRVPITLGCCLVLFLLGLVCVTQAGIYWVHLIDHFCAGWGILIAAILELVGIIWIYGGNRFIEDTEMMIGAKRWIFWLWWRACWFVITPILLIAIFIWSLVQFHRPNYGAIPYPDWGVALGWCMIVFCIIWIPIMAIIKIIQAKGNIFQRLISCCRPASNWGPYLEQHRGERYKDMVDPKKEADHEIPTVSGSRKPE
Test method notes: Substrate activity at SLC6A14 (unknown origin) expressed in Xenopus laevis oocytes assessed as ABT0+ mediated drug uptake at 0.5 mM incubated for 10 mins by HPLC analysis
Format: ADME, cell-based
Condition: oocyte, 500 µM
Attribute measured: Drug uptake (nmol/mg/min)
Please respond with the number in nmol/mg/min and leave the unit unwritten.

See these solved cases before continuing.
• N[C@@H](CCC(=O)O[C@H]1C[C@H](n2cc(F)c(=O)[nH]c2=O)O[C@@H]1CO)C(=O)O = 1.04
• N[C@@H](CC(=O)OC[C@H]1O[C@@H](n2cc(F)c(=O)[nH]c2=O)C[C@@H]1OC(=O)C[C@H](N)C(=O)O)C(=O)O = 1.12
• N[C@@H](CC(=O)O[C@H]1C[C@H](n2cc(F)c(=O)[nH]c2=O)O[C@@H]1CO)C(=O)O = 1.89
• CC(C)[C@H](N)C(=O)OC[C@H]1O[C@@H](n2cc(F)c(=O)[nH]c2=O)C[C@@H]1OC(=O)[C@@H](N)C(C)C = 1.03
• CC(C)[C@H](N)C(=O)O[C@H]1C[C@H](n2cc(F)c(=O)[nH]c2=O)O[C@@H]1CO = 1.56

Give the measured Drug uptake of N[C@@H](CCC(=O)OC[C@H]1O[C@@H](n2cc(F)c(=O)[nH]c2=O)C[C@@H]1O)C(=O)O .
2.12

Give the measured Drug uptake of N[C@@H](CC(=O)OC[C@H]1O[C@@H](n2cc(F)c(=O)[nH]c2=O)C[C@@H]1O)C(=O)O .
2.97

Give the measured Drug uptake of CC(C)[C@H](N)C(=O)OC[C@H]1O[C@@H](n2cc(F)c(=O)[nH]c2=O)C[C@@H]1O .
2.34

Give the measured Drug uptake of N[C@@H](CCC(=O)OC[C@H]1O[C@@H](n2cc(F)c(=O)[nH]c2=O)C[C@@H]1OC(=O)CC[C@H](N)C(=O)O)C(=O)O .
0.78
